Molecular target: canine TRPM8 (Canis lupus familiaris, UniProt Q1A7N1)
Sequence (Q1A7N1 1-1104): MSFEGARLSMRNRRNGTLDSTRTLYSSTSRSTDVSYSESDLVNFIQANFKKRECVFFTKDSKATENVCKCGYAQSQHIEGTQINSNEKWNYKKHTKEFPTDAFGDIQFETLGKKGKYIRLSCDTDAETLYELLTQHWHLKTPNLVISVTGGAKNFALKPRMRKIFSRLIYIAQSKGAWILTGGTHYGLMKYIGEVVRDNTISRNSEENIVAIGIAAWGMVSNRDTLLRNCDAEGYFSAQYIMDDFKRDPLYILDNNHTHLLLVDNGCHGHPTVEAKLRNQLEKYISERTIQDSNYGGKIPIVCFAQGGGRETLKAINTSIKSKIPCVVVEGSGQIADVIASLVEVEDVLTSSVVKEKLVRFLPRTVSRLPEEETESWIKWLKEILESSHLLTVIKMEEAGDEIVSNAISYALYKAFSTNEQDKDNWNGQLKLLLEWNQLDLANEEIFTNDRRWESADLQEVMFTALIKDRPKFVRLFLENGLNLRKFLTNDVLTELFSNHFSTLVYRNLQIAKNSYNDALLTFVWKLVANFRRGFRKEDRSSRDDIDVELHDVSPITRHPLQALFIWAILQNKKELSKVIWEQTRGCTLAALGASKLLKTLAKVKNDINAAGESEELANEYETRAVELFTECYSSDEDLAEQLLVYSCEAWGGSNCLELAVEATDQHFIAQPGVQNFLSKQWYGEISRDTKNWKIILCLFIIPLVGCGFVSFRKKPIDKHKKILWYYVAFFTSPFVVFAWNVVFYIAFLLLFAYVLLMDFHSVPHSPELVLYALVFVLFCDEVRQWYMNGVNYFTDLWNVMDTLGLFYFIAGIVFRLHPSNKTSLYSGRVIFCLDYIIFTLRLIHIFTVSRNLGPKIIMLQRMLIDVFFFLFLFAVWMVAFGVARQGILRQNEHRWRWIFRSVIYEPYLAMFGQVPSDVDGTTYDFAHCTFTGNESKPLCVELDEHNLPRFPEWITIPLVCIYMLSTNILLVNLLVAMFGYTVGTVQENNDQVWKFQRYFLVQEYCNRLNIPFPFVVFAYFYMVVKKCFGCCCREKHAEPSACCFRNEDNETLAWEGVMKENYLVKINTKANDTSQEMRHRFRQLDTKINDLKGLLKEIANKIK
Assay: In Vitro Canine TRPM8 Functional Assay (Ca2+ fluorescence, icilin activation)
Assay type: cell-based
Settings: compound at 0.2 μM; canine TRPM8, icilin activation; read-out: % Inh @ 0.2
ENDPOINT_LABEL: inhibition at 0.2 µM (%)
Write the answer as a number in %, unit excluded.

Example compounds with recorded inhibition at 0.2 µM:
O=c1[nH]c(-c2ccc(S(=O)(=O)N(CCC(F)(F)F)c3cc4ccccc4s3)cc2)ns1 ... 73.1
Cc1c(N(Cc2ccc(F)c(C(F)(F)F)c2)S(=O)(=O)c2ccc(C(C)(C)O)cc2)sc2ccccc12 ... 89
CS(=O)(=O)Nc1c(Cl)cc(S(=O)(=O)N(CCC(F)(F)F)c2sc3ccccc3c2Cl)cc1Cl ... 93.3
COC(=O)c1ccc(S(=O)(=O)N(Cc2ccc(F)c(C(F)(F)F)c2)c2sc3ccccc3c2C)o1 ... 97

Query :: So what does the record say about inhibition at 0.2 µM for "O=C(O)c1ccc(S(=O)(=O)N(CC2CC2)c2sc3ccccc3c2Br)cc1" ?
Result :: 96

Query :: Look up inhibition at 0.2 µM: "CC(C)(O)c1c(N(Cc2ccc(F)c(C(F)(F)F)c2)S(=O)(=O)c2ccc(C(=O)O)cc2)sc2ccccc12"
Result :: 93

Query :: Could you tell me which inhibition at 0.2 µM is on file for "Cc1c(N(Cc2ccc(F)c(C(F)(F)F)c2)S(=O)(=O)CCC=O)sc2ccccc12" ?
Result :: 102
